The values you see were collected from ChEMBL document CHEMBL5291721.

molecular target: Prostaglandin G/H synthase 1 (Rattus norvegicus); type: functional; further: assay procedure not described here
Sequence (Q63921 whole entry): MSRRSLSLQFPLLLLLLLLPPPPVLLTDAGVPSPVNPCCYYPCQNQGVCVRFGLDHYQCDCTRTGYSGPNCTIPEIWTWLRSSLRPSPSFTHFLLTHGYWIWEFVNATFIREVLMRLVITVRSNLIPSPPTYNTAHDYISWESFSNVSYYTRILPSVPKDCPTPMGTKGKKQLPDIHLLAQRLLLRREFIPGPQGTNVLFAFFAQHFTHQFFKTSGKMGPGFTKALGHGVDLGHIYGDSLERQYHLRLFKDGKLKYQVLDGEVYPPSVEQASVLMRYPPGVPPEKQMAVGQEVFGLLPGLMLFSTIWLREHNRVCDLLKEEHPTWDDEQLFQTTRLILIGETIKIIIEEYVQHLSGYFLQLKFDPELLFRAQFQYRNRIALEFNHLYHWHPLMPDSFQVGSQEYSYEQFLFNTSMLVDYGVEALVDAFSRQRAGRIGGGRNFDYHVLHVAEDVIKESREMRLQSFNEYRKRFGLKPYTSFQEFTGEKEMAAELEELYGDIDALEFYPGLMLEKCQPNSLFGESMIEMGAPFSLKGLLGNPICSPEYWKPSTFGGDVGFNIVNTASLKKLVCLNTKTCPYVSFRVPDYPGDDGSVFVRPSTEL
AC50 overview
measured.endpoint: AC50

CC(=O)N[C@H]1[C@H]([C@H](O)[C@H](O)CO)OC(C(=O)O)=C[C@@H]1N=C(N)N [ZANAMIVIR]: > 30 µM
CC(=O)O[C@]1(C(C)=O)CC[C@H]2[C@@H]3C[C@H](C)C4=CC(=O)CC[C@]4(C)[C@H]3CC[C@@]21C [MEDROXYPROGESTERONE ACETATE]: > 30 µM
CCCC(=O)N1CCCN(c2nc(N)c3cc(OC)c(OC)cc3n2)CC1 [BUNAZOSIN]: > 30 µM
CCN1CCC[C@H]1CNC(=O)c1cc(S(N)(=O)=O)ccc1OC [LEVOSULPIRIDE]: > 30 µM
C=C1CC[C@@]2(O)[C@H]3Cc4ccc(O)c5c4[C@@]2(CCN3CC2CC2)[C@H]1O5: > 30 µM
C#CCN(C)[C@H](C)Cc1ccccc1 [SELEGILINE]: > 10 µM
NC(CO)C(=O)NNCc1ccc(O)c(O)c1O (stereo unspecified) [BENSERAZIDE]: > 30 µM
CCCCCOC(=O)Nc1nc(=O)n([C@@H]2O[C@H](C)[C@@H](O)[C@H]2O)cc1F [CAPECITABINE]: > 30 µM
O=C(Cn1ccnc1[N+](=O)[O-])NCc1ccccc1 [BENZNIDAZOLE]: > 30 µM
OCc1cc([C@@H](O)CNCCCCCCOCCOCc2c(Cl)cccc2Cl)ccc1O [VILANTEROL]: > 30 µM
O=C(O)c1cc(-c2ccc(F)cc2F)ccc1O [DIFLUNISAL]: > 10 µM
CN1CCC2=C(C1)C(c1ccccc1)c1ccccc12 (stereo unspecified) [PHENINDAMINE]: 0.771 µM
O=C(O)CCn1c2c(c3ccccc31)C[C@H](NS(=O)(=O)c1ccc(F)cc1)CC2 [RAMATROBAN]: > 30 µM
O=C1CCC(N2C(=O)c3ccccc3C2=O)C(=O)N1 (stereo unspecified) [THALIDOMIDE]: > 30 µM
CCCS(=O)(=O)Nc1ccc(F)c(C(=O)c2c[nH]c3ncc(-c4ccc(Cl)cc4)cc23)c1F [VEMURAFENIB]: > 30 µM
CC(C)c1c(C(=O)Nc2ccccc2)c(-c2ccccc2)c(-c2ccc(F)cc2)n1CC[C@@H](O)C[C@@H](O)CC(=O)O [ATORVASTATIN]: > 30 µM
CC(C)Cc1ccc(CC(=O)O)cc1 [IBUFENAC]: > 30 µM
COc1c(N2CCNC(C)C2)c(F)cc2c(=O)c(C(=O)O)cn(C3CC3)c12 (stereo unspecified) [GATIFLOXACIN]: > 10 µM
CN(C/C=C/c1ccccc1)Cc1cccc2ccccc12 [NAFTIFINE]: 23.1 µM
O=C1NCCN1CCN1CCC(c2cn(-c3ccc(F)cc3)c3ccc(Cl)cc23)CC1 [SERTINDOLE]: > 30 µM
C#CCN[C@@H]1CCc2ccccc21 [RASAGILINE]: > 30 µM
CC(C)NNC(=O)c1ccncc1 [IPRONIAZID]: 0.45 µM
O=C1CN=C(c2ccccc2)c2cc(Cl)ccc2N1CC(F)(F)F [HALAZEPAM]: > 30 µM
Nc1ncnc2c1ncn2[C@@H]1O[C@H](COP(=O)(O)O)[C@@H](O)[C@H]1O [ADENOSINE PHOSPHATE]: > 30 µM
COc1cc2c(cc1OC)C(=O)C(CC1CCN(Cc3ccccc3)CC1)C2 (stereo unspecified) [DONEPEZIL]: > 30 µM
CCCCC(C)(O)C/C=C/[C@H]1[C@H](O)CC(=O)[C@@H]1CCCCCCC(=O)OC (stereo partly specified) [MISOPROSTOL]: > 30 µM
CN1C(=O)CC(=O)N(c2ccccc2)c2cc(Cl)ccc21 [CLOBAZAM]: > 10 µM
CCOC(=O)[C@H](CCc1ccccc1)N[C@@H](C)C(=O)N1CCC[C@H]1C(=O)O: > 30 µM
CN(C)C(=O)OC1N=C(c2ccccc2)c2cc(Cl)ccc2N(C)C1=O (stereo unspecified) [CAMAZEPAM]: > 30 µM
CC(C)NCC1CCc2cc(CO)c([N+](=O)[O-])cc2N1 (stereo unspecified) [OXAMNIQUINE]: > 10 µM
CCCOc1ccc(C(=O)OCCN(CC)CC)cc1N [PROPARACAINE]: 0.75 µM
CN1CC(=O)N2[C@H](c3ccc4c(c3)OCO4)c3[nH]c4ccccc4c3C[C@@H]2C1=O: > 30 µM
OCCN1CCN(CCCN2c3ccccc3C=Cc3ccccc32)CC1 [OPIPRAMOL]: > 30 µM
COc1ccc(C(=O)N2CCN(c3ccc4c(c3)CCC(=O)N4)CC2)cc1OC [VESNARINONE]: > 30 µM
C#C[C@]1(O)CC[C@H]2[C@@H]3CCC4=CCCC[C@@H]4[C@H]3CC[C@@]21C [LYNESTRENOL]: > 30 µM
Cc1cc2c(OCC(CNC(C)(C)C)OC(=O)c3ccccc3)cccc2[nH]1 (stereo unspecified) [BOPINDOLOL]: 3.5 µM
